Just for reference, PubChem BioAssay is where these values come from.

assay: binders of probe aFSTL3 on microarray, primary screen, stem cell growth factor project, biochemical, small-molecule microarray, fluorescence 635/667 (AID 1064); conditions: higher = more signal;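 also: measures binding of the biotinylated anti-FSTL3 antibody to printed compounds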
Please note: yes applies when composite z-score is 0.4 or greater, and no applies otherwise.

COMPOUND	LABEL VALUE
COCCOC(=O)N1C(=O)[C@@]2(c3cc(C#CCCO)ccc31)[C@H](c1ccccc1OCCO)N1[C@H](c3ccccc3)[C@H](c3ccccc3)OC(=O)[C@H]1[C@@H]2C(=O)N1CCCCCCC1	yes
CCCCCCCCCCC(O)C1C=CC2C(=O)N(C)C(=O)C2N1Nc1cc(OC)c(OC)c(OC)c1 (centres undefined)	yes
O=C1O[C@H](c2ccccc2)[C@H](c2ccccc2)N2[C@H]1[C@@H](C(=O)O)[C@]1(C(=O)Nc3ccc(C#CC4(O)CCCCCC4)cc31)[C@H]2c1ccc(O)cc1	no
CC(C)(C)OC(=O)CC[C@]1(C(=O)N2CCCCC2)COC(c2ccc(OCCCO)cc2)=N1	no
C[C@]1(C(=O)NCC(F)(F)F)c2ccccc2C(=O)N(Cc2ccccc2)[C@H]1c1ccc(CO)cc1	yes
CCCCC(=O)N(CCN1CCOCC1)[C@@H]1CC(C(=O)NCCO)=C[C@H](Oc2c(I)cc(CO)cc2OC)[C@H]1O	no
C=C(C)[C@@H]1CC=C(C(O)C2C=CC3C(=O)N(c4ccccc4)C(=O)C3N2Nc2ccc(C#N)cc2)CC1 (some centres undefined)	no
C[C@]1(C(=O)O)c2ccccc2C(=O)N(Cc2ccc(OC(F)(F)F)cc2)[C@H]1c1ccc(CO)cc1	yes
COc1ccc([Si](C)(C)[C@H]2[C@H](CC(=O)N3Cc4ccccc4C[C@H]3CO)O[C@@]3(C(=O)N(Cc4ccc(N5C(=O)c6cccc7cccc5c67)cc4)c4ccccc43)[C@@H]2C)cc1	no
Cc1ccc([C@H]2C(C(=O)O)=C[C@@H](C(C)(C)C)N2S(=O)(=O)c2ccc(C)cc2)cc1	no
CN(C)CCCC[C@@H]1NC(=O)[C@@H]2C[C@H](C(=O)O)[C@H](c3cccc(OCCO)c3)N2C1=O	no
COCCOC(=O)N1C(=O)[C@@]2(c3ccccc31)[C@H](c1ccc(OCCO)cc1)N1[C@H](c3ccccc3)[C@H](c3ccccc3)OC(=O)[C@H]1[C@@H]2C(=O)N1CCCCCCC1	yes
O=C1C2C=CC(C(O)C=Cc3ccc([N+](=O)[O-])cc3)N(Nc3ccccc3)C2C(=O)N1c1ccccc1 (centres undefined)	no
CC(=O)NCCCC[C@@H]1NC(=O)[C@@H]2C[C@H](C(=O)NCCCCCCN)[C@H](c3cccc(OCCO)c3)N2C1=O	yes
COC(=O)[C@@]1(Cc2ccc(F)cc2)[C@H]2c3cc(C(=O)N(C)C)n(Cc4c(CO)[nH]cc(C)c4=O)c3C[C@H]2CN1C(=O)c1ccccc1	yes
O=C1C[C@@](C(=O)NCc2ccccc2)(c2ccc([N+](=O)[O-])cc2)[C@@H](c2ccc(CO)cc2I)N1CC12CC3CC(CC(C3)C1)C2	no
CN1C(=O)[C@@]2(Cc3ccccc3)N=C(c3ccc(OCCCO)cc3)O[C@H]2c2ccccc21	no
Cc1ccc(S[C@]2(C(=O)NCC(C)C)CC(=O)N(C3Cc4ccccc4C3)[C@@H]2c2ccc(CO)cc2I)cc1	yes
Cc1ccc(S[C@]2(C(=O)NC(C)C)CC(=O)N(C(C)C)[C@@H]2c2ccc(CO)cc2I)cc1	no
C=CCNC(=O)[C@H]1[C@@H]2C(=O)O[C@@H](c3ccccc3)[C@@H](c3ccccc3)N2[C@@H](c2ccc(OCCO)cc2)[C@]12C(=O)Nc1ccc(C#CCNC(N)=O)cc12	no
CCC(CC)C(O)C1C=CC2C(=O)N(c3ccccc3)C(=O)C2N1Nc1ccc([N+](=O)[O-])cc1 (centres undefined)	yes
C=C/C=C/[C@@H]1C(=C)CN([C@@H](Cc2ccccc2)C(=O)OC)[C@H]1[C@@H](O)Cc1ccccc1	no
COc1cc(NN2C(C(O)c3cc(OC)c(OC)c(OC)c3)C=CC3C(=O)N(c4ccccc4)C(=O)C32)cc(OC)c1OC (centres undefined)	yes
